target: T1, IgG-Fc (UniProt P01857-1 108-330 = IgG part, limits assumed); assay: synthetic peptide; method of the Kd not named
T1 construct: domain: IgG-Fc; also called biotinylated-IgG-Fc; biotin-IgG-Fc
Bridges are numbered along the chain shown (N, C = ends).
MEASUREMENT_TYPE: pKd
Worth noting: pKd values are minus log10 of concentrations stated in mol/L.

Looking up H-DLADCSWHMGELVWCSRVEG-NH2 (disulfide 5-15 (inferred), Synthetic peptide) [peptide DLADCSWHMGELVWCSRVEG] , I found its pKd recorded as 7.30
